Dear all, I have gathered published pKi values for Protein kinase C alpha type (Homo sapiens, UniProt P17252); the list follows.
pKi: −log10 of the molar value.
reported.property: pKi

> print(dat)
                                    compound                           target.of.assay  reported.property     obs.value
 1  CC(C)C[C@H]1CN(c2cccc(-c3n[nH]c4ncccc34)n2)CC[C@@H]1O  Protein kinase C alpha type (Homo sapiens, UniProt P17252)                pKi        < 5.90
 2                Nc1ncccc1C(=O)c1cccc(Br)n1  Protein kinase C alpha type (Homo sapiens, UniProt P17252)                pKi  5.55 to 6.30
 3     c1cnc2[nH]nc(-c3nccc(N4CCNCC4)n3)c2c1  Protein kinase C alpha type (Homo sapiens, UniProt P17252)                pKi        < 5.90
 4       Nc1ncccc1C(=O)c1cncc(N2CCC(N)CC2)n1  Protein kinase C alpha type (Homo sapiens, UniProt P17252)                pKi  5.55 to 6.30
 5  CCC[C@H]1CN(c2ccc(F)c(-c3n[nH]c4ncccc34)n2)C[C@H]1N  Protein kinase C alpha type (Homo sapiens, UniProt P17252)                pKi        < 5.90
 6  CC(C)C[C@@H]1CN(c2cccc(-c3n[nH]c4ncccc34)n2)CCN1  Protein kinase C alpha type (Homo sapiens, UniProt P17252)                pKi        > 5.55
 7  Clc1cc(Cl)cc(CNc2ncc3nc(-c4c(Cl)cccc4Cl)n(C[C@@H]4CCCNC4)c3n2)c1  Protein kinase C alpha type (Homo sapiens, UniProt P17252)                pKi        < 5.00
 8  CC1(CN)CCCc2sc(-c3ccnc4[nH]ncc34)nc21 (centres unmarked)  Protein kinase C alpha type (Homo sapiens, UniProt P17252)                pKi        < 5.90
 9  O=c1[nH]c2cnc(NCC3CCNC3)nc2n1Cc1ccccc1Cl (centres unmarked)  Protein kinase C alpha type (Homo sapiens, UniProt P17252)                pKi        < 6.00
10  O=c1[nH]c2cnc(NCC3CCNCC3)nc2n1Cc1ccccc1Cl  Protein kinase C alpha type (Homo sapiens, UniProt P17252)                pKi        < 5.00
11  CC(C)(C)C[C@H]1CN(c2ccc(F)c(-c3n[nH]c4ncccc34)n2)CCN1  Protein kinase C alpha type (Homo sapiens, UniProt P17252)                pKi        < 5.90
12  CC(C)(F)C1CN(c2cccc(-c3n[nH]c4ncccc34)n2)CCN1 (centres unmarked)  Protein kinase C alpha type (Homo sapiens, UniProt P17252)                pKi        < 5.90
13  CC(C)C(C)(O)C1CN(c2ccc(F)c(-c3n[nH]c4ncccc34)n2)CCN1C (centres unmarked)  Protein kinase C alpha type (Homo sapiens, UniProt P17252)                pKi        < 5.90
14  CC(C)[C@H]1CN(c2ccc(C(F)(F)F)c(C(=O)c3cccnc3N)n2)C[C@@H](c2ccccc2)N1  Protein kinase C alpha type (Homo sapiens, UniProt P17252)                pKi        < 5.55
15  NC(=O)CC1CN(c2ccc(C(F)(F)F)c(-c3n[nH]c4ncccc34)n2)CCN1 (centres unmarked)  Protein kinase C alpha type (Homo sapiens, UniProt P17252)                pKi        < 5.90
16  Fc1ccc(Cl)cc1CNc1ncc2c(n1)C(C[C@H]1CCNC1)C(c1c(Cl)cccc1Cl)=N2 (some centres unmarked)  Protein kinase C alpha type (Homo sapiens, UniProt P17252)                pKi        < 6.00
17  NCC(CNc1ccc(C(F)(F)F)c(C(=O)c2cccnc2N)n1)c1ccccc1 (centres unmarked)  Protein kinase C alpha type (Homo sapiens, UniProt P17252)                pKi        > 7.30
18  NCC1CCCN(c2ccc(C(F)(F)F)c(-c3n[nH]c4ncccc34)n2)C1 (centres unmarked)  Protein kinase C alpha type (Homo sapiens, UniProt P17252)                pKi        < 5.90
19  NC[C@@H]1CCCN1c1ccc(F)c(-c2n[nH]c3ncccc23)n1  Protein kinase C alpha type (Homo sapiens, UniProt P17252)                pKi        < 5.90
20    CCCNc1ccc(C(F)(F)F)c(C(=O)c2cccnc2N)n1  Protein kinase C alpha type (Homo sapiens, UniProt P17252)                pKi  5.55 to 6.30
21  CC(C)C[C@H]1CN(c2cccc(-c3n[nH]c4ncccc34)n2)CC(F)(F)CN1  Protein kinase C alpha type (Homo sapiens, UniProt P17252)                pKi        < 5.90
22    NCCNc1ccc(C(F)(F)F)c(C(=O)c2cccnc2N)n1  Protein kinase C alpha type (Homo sapiens, UniProt P17252)                pKi  5.55 to 6.30
23  CCOC(=O)N1CCN(c2ccc(F)c(-c3n[nH]c4ncccc34)n2)CC1C(C)(O)C(C)C (centres unmarked)  Protein kinase C alpha type (Homo sapiens, UniProt P17252)                pKi        < 5.90
24   C=Cc1cnc(N)c(C(=O)c2cccc(N3CCNCC3)n2)c1  Protein kinase C alpha type (Homo sapiens, UniProt P17252)                pKi        > 7.30
25  CC(C)C[C@H]1CN(c2ccc(Cl)c(-c3n[nH]c4ncccc34)n2)CCN1  Protein kinase C alpha type (Homo sapiens, UniProt P17252)                pKi        > 5.55
26  CC(C)C[C@@]1(F)CN(c2ccc(F)c(-c3n[nH]c4ncccc34)n2)CC[C@H]1O  Protein kinase C alpha type (Homo sapiens, UniProt P17252)                pKi        < 5.90
27  NCC1CCC(CNc2ccc(C(F)(F)F)c(C(=O)c3cccnc3N)n2)CC1 (centres unmarked)  Protein kinase C alpha type (Homo sapiens, UniProt P17252)                pKi        < 5.55
28  O=c1[nH]c2cnc(NCC3CCNC3)nc2n1Cc1ccccc1Br (centres unmarked)  Protein kinase C alpha type (Homo sapiens, UniProt P17252)                pKi        < 6.00
29  Fc1ccc(Cl)cc1CNc1ncc2nc(-c3c(Cl)cccc3Cl)n(CC3CCNC3)c2n1 (centres unmarked)  Protein kinase C alpha type (Homo sapiens, UniProt P17252)                pKi        < 6.00
30  Nc1ncccc1C(=O)c1nc(N2CCC(N)C2)ccc1C(F)(F)F (centres unmarked)  Protein kinase C alpha type (Homo sapiens, UniProt P17252)                pKi  5.55 to 6.30
31  Fc1ccc(F)c(CNc2ncc3nc(-c4ccccc4Cl)n(C[C@@H]4CCCNC4)c3n2)c1  Protein kinase C alpha type (Homo sapiens, UniProt P17252)                pKi        < 5.00
32  CC(O)C1CN(c2cccc(-c3n[nH]c4ncccc34)n2)CCN1 (centres unmarked)  Protein kinase C alpha type (Homo sapiens, UniProt P17252)                pKi        < 5.90
33  C=C(F)c1ccc(N2CCNC(c3ccccc3)C2)nc1C(=O)c1cccnc1N (centres unmarked)  Protein kinase C alpha type (Homo sapiens, UniProt P17252)                pKi        > 7.30
34  CN1CCN(c2ccc(F)c(-c3n[nH]c4ncccc34)n2)CC1  Protein kinase C alpha type (Homo sapiens, UniProt P17252)                pKi        < 5.90
35  NCCCNc1ncc2[nH]c(=O)n(Cc3cc(F)ccc3C(F)(F)F)c2n1  Protein kinase C alpha type (Homo sapiens, UniProt P17252)                pKi        < 5.00

###

Dear all, I have gathered published pKi values for Protein kinase C alpha type (Homo sapiens, UniProt P17252); the list follows.
pKi: −log10 of the molar value.
reported.property: pKi

> print(dat)
                                    compound     obs.value
 1  C=Cc1cnc(N)c(C(=O)c2cccc(N3CCNC(c4ccccc4)C3)n2)c1 (centres unmarked)        > 7.30
 2       C=Cc1ccc(N2CCNCC2)nc1C(=O)c1cccnc1N  5.55 to 6.30
 3  Fc1ccccc1CNc1ncc2nc(-c3c(Cl)cccc3Cl)n(C[C@@H]3CCNC3)c2n1        < 6.00
 4  CC(C)(C)C[C@H]1CN(c2ccc(Cl)c(-c3n[nH]c4ncccc34)n2)CCN1        > 5.55
 5  COc1ccccc1C1CN(c2ccc(C(F)(F)F)c(-c3n[nH]c4ncccc34)n2)CCN1 (centres unmarked)        < 5.90
 6  CC(C)C(F)(F)C1CN(c2ccc(F)c(-c3n[nH]c4ncccc34)n2)CCN1 (centres unmarked)        < 5.90
 7   CNCCNc1ccc(C(F)(F)F)c(C(=O)c2cccnc2N)n1  5.55 to 6.30
 8  Clc1cccc(CNc2ncc3nc(-c4c(Cl)cccc4Cl)n(C[C@H]4CCNC4)c3n2)c1        < 6.00
 9  Clc1cccc(C2CN(c3cccc(-c4n[nH]c5ncccc45)n3)CCN2)c1 (centres unmarked)        > 5.55
10  CCCC1(C)CN(c2ccc(C(F)(F)F)c(-c3n[nH]c4ncccc34)n2)CCC1N (centres unmarked)        > 6.30
11  CC1CN(c2ccc(F)c(-c3n[nH]c4ncccc34)n2)CC(C2(O)CCC2)N1 (centres unmarked)        < 5.90
12  CC(C)CC1(CN)CCCN(c2ccc(C(F)(F)F)c(-c3n[nH]c4ncccc34)n2)C1 (centres unmarked)        < 5.90
13  C=Cc1cnc(N)c(C(=O)c2nc(N3CCNC(c4ccccc4)C3)ccc2Cl)c1 (centres unmarked)        > 7.30
14  Clc1cccc(Cl)c1-c1nc2cnc(NCc3ccco3)nc2n1CCC1CCNCC1        < 6.00
15  CC[C@H]1CN(c2ccc(C(F)(F)F)c(C(=O)c3cccnc3N)n2)C[C@H](CC(C)C)N1        < 5.55
16  FC(F)(F)c1ccc(N2CCNCC2)nc1-c1n[nH]c2ncccc12        < 5.90
17  Cc1cc(N2CCN[C@@H](CC(C)C)C2)nc(-c2n[nH]c3ncccc23)c1Cl        < 5.90
